Hey, just so you know, these numbers are from ChEMBL document CHEMBL2380254.

Documented GI50 across a set of compounds
- Tested on: A498
- Assay Summary: Growth inhibition of human A498 cells after 48 hrs by sulforhodamine B assay
- Format: functional
- Cond: A498, 48 h
Measured Attribute: GI50 (µM)

>>> readout_value("CC(C)=CCC/C(C)=C/CC/C(C)=C/CC[C@]1(C)CCc2c3c(c(C)c(C)c2O1)OCN(CCCCCO)C3")
5.76
>>> readout_value("CC(C)=CCC/C(C)=C/CC/C(C)=C/CC[C@]1(C)CCc2c3c(c(C)c(C)c2O1)OCN(CCCCCCCCO)C3")
2.32
>>> readout_value("CC(C)=CCC/C(C)=C/CC/C(C)=C/CC[C@]1(C)CCc2c3c(cc(C)c2O1)OCN(CCCCO)C3")
14.8
>>> readout_value("CC(C)=CCC/C(C)=C/CC/C(C)=C/CC[C@]1(C)CCc2c3c(c(C)c(C)c2O1)OCN(CCCCCCO)C3")
2.59
>>> readout_value("COc1ccc(CCN2COc3cc(C)c4c(c3C2)CC[C@@](C)(CC/C=C(\\C)CC/C=C(\\C)CCC=C(C)C)O4)cc1OC")
1.8
>>> readout_value("CC(C)=CCC/C(C)=C/CC/C(C)=C/CC[C@]1(C)CCc2c3c(cc(C)c2O1)OCN(CCCCCO)C3")
5.76
